target: Fuc(a1-2)[GalNAc(b1-3)]Gal; assay: glycan array binding signal (z-score within array); higher = stronger binding; conditions: glycan notation: IUPAC condensed, linker removed
About 410 targets per protein were measured; listed, in parts, are those with the strongest signals and a random draw of the rest.
RESULT TYPE: glycan array binding signal (z-score)

# BINDER, RECORDED NUMBER
rows = [
    ("F4 (Escherichia coli), A0A6L9DDF0 (protein) MKKTLIALALAASAVSGMAHAWTSGDFNGTVDIGGSIDATNYRQKWEWEVGTGLNGFYNALSELTNNDTKLTITVTGNKPILLGRTKEAFVTPTAGGWGGIPQIAFTDYKGAPVELKNPDGETNKGLAYFVLPMKNADGTEAGSVRVNASYAGAVVEKTSDSSAKLFSAYAGEVIRIFNGGLPVNVTQSELQSGVAAADRTALFGSLGKADLVAQFQAVIPGATVTDGTSSEHCTMRLLASAAYALGIADGQTIEATFNQAVTTSTQWSAPLNVAITYY", -0.33),
    ("LKITALY (Gibberella zeae) (protein) MGNFHESSNNIWLEDGHILHAECGNGEGDYVESTLDLDYYIGNDDGSFSWGGENFSGSASNITLDIEGDDNIPVLRAELNPMDGDPVEANVNLSERIGNDCGTLIFLA", -0.36),
    ("BC2L-D C-terminal domain (Burkholderia cenocepacia), Q39MQ9_BURS3 (protein) LVIVDAVTLLSAYPEASRDPAAPTVIDGRHLYVVSPGDAAQLGHNDSRLFTGLSPGDQLHLRETALALRAEVSVLFIRFALKDAGIVAPIELEVRDAATAVPDADDLLHPSCRPLKDHYWRSDVLAAGATTCTADFAVCDRDGTVSGYFRWETSIEIAGSQPDTKQPGFKPSSDRNGNFSLPPNTAFKAIFYANAADRQDLKLFIDDAPEPAATFVGNSEDGVRLFTLNSKGGKIRIEASANGRQSATDARLAPLSAGDTVWLGWLGAEDGADADYNDGIVILQWPIT", -0.242),
]
